Origin of the recorded values: paper PMC9229919

assay: Reverse-phase thin-layer chromatographic lipophilicity (RF, RM0); format: physicochemical; details: RP-18 silica; IV = 75%MeOH/20%H2O/5%HCl
Readout Type: RF, Methanol/Water/Hydrochloric acid (conc.), mobile phase IV

| Compound | Observed Measurement |
| --- | --- |
| Clc1ccc2c(NCCN(CCC34CC5CC(CC(C5)C3)C4)CCC34CC5CC(CC(C5)C3)C4)ccnc2c1 | 0.1 |
| Clc1ccc2c(NCCCCCCCCNCC34CC5CC(CC(C5)C3)C4)ccnc2c1 | 0.44 |
| FC(F)(F)c1ccc2c(NCCNCC34CC5CC(CC(C5)C3)C4)ccnc2c1 | 0.53 |
| FC(F)(F)c1ccc2c(NCCCNCC34CC5CC(CC(C5)C3)C4)ccnc2c1 | 0.51 |
| Clc1ccc2c(NCCNCC34CC5CC(CC(C5)C3)C4)ccnc2c1 | 0.55 |
| Clc1ccc2c(Nc3cccc(NCC45CC6CC(CC(C6)C4)C5)c3)ccnc2c1 | 0.49 |
| Clc1ccc2c(NCCCN3CCN(CCCNCC45CC6CC(CC(C6)C4)C5)CC3)ccnc2c1 | 0.59 |
| CC(CCNCC12CC3CC(CC(C3)C1)C2)Nc1ccnc2cc(Cl)ccc12 (stereo not drawn) | 0.5 |
| Clc1ccc2c(NCCCN3CCN(CCCNCCC45CC6CC(CC(C6)C4)C5)CC3)ccnc2c1 | 0.53 |
| Clc1ccc2c(NCCNCCC34CC5CC(CC(C5)C3)C4)ccnc2c1 | 0.47 |
| Clc1ccc2c(NCCCCN(CCC34CC5CC(CC(C5)C3)C4)CCC34CC5CC(CC(C5)C3)C4)ccnc2c1 | 0.1 |
| CC(CCNCC12CC3CC(CC(C3)C1)C2)Nc1ccnc2cc(C(F)(F)F)ccc12 (stereo not drawn) | 0.49 |
| CC(CCNCC12CC3CC(CC(C3)C1)C2)Nc1ccnc2ccccc12 (stereo not drawn) | 0.51 |
| Clc1ccc2c(NCCCNCC34CC5CC(CC(C5)C3)C4)ccnc2c1 | 0.53 |
| Clc1ccc2c(N3CCN(CCC45CC6CC(CC(C6)C4)C5)CC3)ccnc2c1 | 0.51 |

----------
experiment: Reverse-phase thin-layer chromatographic lipophilicity (RF, RM0); type: physicochemical; conditions: Dioxane/Water/Hydrochloric acid (conc.); intercept of RM = RM0 + bC
Measured RM0, listed per entry for reference.

| Compound | RM0 |
| --- | --- |
| FC(F)(F)c1ccc2c(NCCNCC34CC5CC(CC(C5)C3)C4)ccnc2c1 [Compound 6] | 0.9723 |
| Clc1ccc2c(Nc3cccc(NCC45CC6CC(CC(C6)C4)C5)c3)ccnc2c1 [Compound 18] | 1.102 |
| Clc1ccc2c(NCCCN3CCN(CCCNCC45CC6CC(CC(C6)C4)C5)CC3)ccnc2c1 [Compound 22] | 0.5478 |
| Clc1ccc2c(NCCCNCC34CC5CC(CC(C5)C3)C4)ccnc2c1 [Compound 2] | 0.8129 |
| Clc1ccc2c(NCCNCCC34CC5CC(CC(C5)C3)C4)ccnc2c1 [Compound 8] | 1.144 |
| FC(F)(F)c1ccc2c(NCCCNCC34CC5CC(CC(C5)C3)C4)ccnc2c1 [Compound 7] | 0.9445 |
| Clc1ccc2c(NCCN(CCC34CC5CC(CC(C5)C3)C4)CCC34CC5CC(CC(C5)C3)C4)ccnc2c1 [Compound 9] | 2.268 |
| Clc1ccc2c(N3CCN(CC45CC6CC(CC(C6)C4)C5)CC3)ccnc2c1 [Compound 20] | 0.3825 |
| Clc1ccc2c(NCCCCNCC34CC5CC(CC(C5)C3)C4)ccnc2c1 [Compound 3] | 0.7921 |
| Clc1ccc2c(NCCCN3CCN(CCCNCCC45CC6CC(CC(C6)C4)C5)CC3)ccnc2c1 [Compound 23] | 0.7935 |
| CC(CCNCC12CC3CC(CC(C3)C1)C2)Nc1ccnc2cc(C(F)(F)F)ccc12 (centres unmarked) [Compound 13] | 0.9361 |
| Clc1ccc2c(NCCCCCN(CCC34CC5CC(CC(C5)C3)C4)CCC34CC5CC(CC(C5)C3)C4)ccnc2c1 [Compound 11] | 2.01 |
| Clc1ccc2c(Nc3cccc4c(NCCC56CC7CC(CC(C7)C5)C6)cccc34)ccnc2c1 [Compound 19] | 1.551 |
| Clc1ccc2c(N3CCN(CCC45CC6CC(CC(C6)C4)C5)CC3)ccnc2c1 [Compound 21] | 0.7539 |
| Clc1ccc2c(NCCCCN(CCC34CC5CC(CC(C5)C3)C4)CCC34CC5CC(CC(C5)C3)C4)ccnc2c1 [Compound 10] | 1.984 |
| CC(CCNCC12CC3CC(CC(C3)C1)C2)Nc1ccnc2cc(Cl)ccc12 (centres unmarked) [Compound 12] | 0.75 |
| CC(CCNCCC12CC3CC(CC(C3)C1)C2)Nc1ccnc2cc(Cl)ccc12 (centres unmarked) [Compound 14] | 1.306 |
